- Species: Mus musculus
- PROTOCOL NOTES: Evaluated for potency in CDF1 mice and the ability of it to decrease feed consumption was determined; also: test concentration or dose not given here
- Assay type: functional
PROPERTY: Feed consumption (g/day)

[
  {
    "COMPOUND": "CC(=O)OC1=CC2=CC[C@H]3[C@@H]4CC[C@H]([C@H](C)CCCC(C)C)[C@@]4(C)CC[C@@H]3[C@@]2(C)CC1",
    "PROPERTY": "Feed consumption",
    "READING UNIT": "g/day",
    "RESULT NUMBER": 5.64
  },
  {
    "COMPOUND": "CC(C)CCC[C@@H](C)[C@H]1CC[C@H]2[C@@H]3CC[C@H]4CC(=O)CC[C@]4(C)[C@H]3CC[C@]12C [CHOLESTAN-3-ONE]",
    "PROPERTY": "Feed consumption",
    "READING UNIT": "g/day",
    "RESULT NUMBER": 4.6
  },
  {
    "COMPOUND": "CC[C@H](CC[C@@H](C)[C@H]1CC[C@H]2[C@@H]3CCC4CC(O)CC[C@]4(C)[C@H]3CC[C@]12C)C(C)C (some centres undefined)",
    "PROPERTY": "Feed consumption",
    "READING UNIT": "g/day",
    "RESULT NUMBER": 5.43
  },
  {
    "COMPOUND": "CC(C)CCC[C@@H](C)[C@H]1CC[C@H]2[C@@H]3CC=C4C=C(N5CCCC5)CC[C@]4(C)[C@H]3CC[C@]12C",
    "PROPERTY": "Feed consumption",
    "READING UNIT": "g/day",
    "RESULT NUMBER": 6.1
  }
]
